- protocol-description: soluble on expression in E. coli; label from the status in PepcDB or PDB records
quantity-name: soluble on expression in E. coli

These recorded examples may help you get a feel for the data.
PKTQRGIYHNLKESEYVASNTDVTFFFSSELYLNKFLDGYQEYRKKFNKKIERVAVTPWNMDMLADITFYSEVEKRGFHAWLKGDNATWREVHVYALRIMTKPNTLDWSRIQKPRLRERRKSM : soluble
DNVKYVSSVQRDKELLHAKYGKDIDKAEDVAKEYPSLESIVAKHPDIFVAGWNYGFSEEKNLTPDALKDQGIDSYILSESCRQEGSEKRGLYDPWEAVKMDISNIGKITSHADTADSVVKDIDSRLETLKKAPQADKAPTAFVFDSGTDTVFTSGKFGAPQAIIEAAGGRNGAENVEDTWTTVSWENLAASKPDVFVFVDYPGQEFEEKIAALRSNPATKNLPAVKENRFINLPYAMWTSGPLNIDAAEQMRKGFEKFGLVPSSEIKPSLELPASVPGQNYYK : not soluble
MLSGDLAEFPFPSLVGALMSAGRTGRLHLRPPFLEAEVYLRGGQVVHAKAQAGERALEGEEALDLLVGLRRAPFVFEPEALPPHTTLLGGLEVPARLAQAQAAWEKVKLPADWGLRLRLPREGSAVELPPEALGLLARVEGKRIAEVLLAPGVLRQARVLSTLLEVGALEAYPEVDLPPEPLVVLPIYGPGSGVAYVDEALYAQWARAIRRGFRVRLLPLGAVLEVRPRPNLQGRVGLMEEDLKRLRLRRGDKVEAVPKV : soluble
MAHHHHHHMESNNHTTDLPSHAPGVEAAPIAAATPPLTGLAEGAVVTEGASHPKMAAAEPSEATATESPPSPHSTGEAKTQNALAALMSVLDNDEAARRGGTSLRSLQKMCMRVPQLSTELTRPQRFQLYCLLLLEDGDDPAVPGGAAGQEDWTTYTKQALETHVHMAKQAAALFPPPSTSPPTNSPASSTAWAPMRPFTSIRQ : soluble
MLEFSSEVSLLDSVKNILLEYGLRFQEPQIEKVDKYIEELLGVPYNLTAHRDLDSAVHKNVVEILLPLKEELKGTLLDVGSGNGVPGLILAIFFSKLKVVLLDSREKSVNFLRGVIEKLDLENVSVVKERAENFSKERREEFDYVTARAVARLNVLVEICTPALKTGGKLLFYKGPSYIEELKEAQRAMKELKVELEKVREYSLKTGERRALLILRKYESSPEKYPRRVGVPFKRPLL : soluble
MGSDKIHHHHHHMTANPTVFTFADSTDLILEIPDSTTANLDSQLFSHPYSRYQAYLNELCLSAVLPWLQEDFSTQAKVWPSATTLASLWELVNGTAVTIDGKRFILVPSENIDHSELRVQQEWVDLPTWAGDYYLAVQVDGEYVKVWGYCTHTQLKHQGKYDPGDRTYSLDITDIVNDISVLAVARDLCPDEITRTAIAPLPTIPQEQAQNLITRLSNPEIINPRLAIPFQLWGALIEHGGWRQSLYERRLGLPEQRSVLQWLQSGVSQVAQTMGWGRLNLQLSAAGARSVEERQTGVTLSRRLTIAGQLYELLITPQGEPDAPYWRFELRNAAVGAVIPGGFKLRLLTEDLQSFPNNEDIATNAVEQLYVEVALEAGEGIVWEIEPLPENYDREILKF : not soluble

For record "MGSDKIHHHHHHMSWRYALKNYVTSPETVNDDTVTYFDDKVSIIRDSFPKSECHLLILPRTMQLSRSHPTKVIDAKFKNEFESYVNSAIDHIFRHFQEKFRIKKSDDDKDPCWDDILKDKNKFVRNFVQVGIHSVPSMANLHIHVISKDFHSVRLKNKKHYNSFNTGFFISWDDLPLNGKNLGTDKEIETTYLKEHDLLCCYCQRNFSNKFSLLKKHLELEFNSHFELK" the listed soluble on expression in E. coli is not soluble

For record "MGSSHHHHHHSSGLVPRGSHMDFYKLDEKLKELKRKRVDVSIKSRKLADREIQEVSANRKPRVYSMEDVNDADESVGDTESPEKEKAFHYTVQEYDAWERRHPQGKTGQSQRGGISYDQLAKLSYEKTLRNLATQTQNSSKQDSSADEEDNKNVPKKGRIGKVQKDTKTGKITIADDDKLVNKLAVSLQSESKKRYEARKRQMQNAKTLYGVESFINDKNKQFNEKLSRESKGSE" the listed soluble on expression in E. coli is soluble

For record "MSYLDFNSMLNNLYTKFGDSSFENVFYLPEPKISKKSTRIDWININVFLKSVNRSIEHFINYLKNDRKISTTYQNNILIIQGKYRKEDINKMMLEYVNKFCKCPICSSYDTLLVKDGTIRKEKIICSKCKSTTFCS" the listed soluble on expression in E. coli is not soluble

For record "MAHHHHHHMWEETYVRACANLGVQPRNEVLAAVGGTAQLCGNTFANFENRLTDEELAALCETCRQISLVAVVRLPYNNITCRGATALAKAMKEGFSTLQYLDLSYNSINEEGANAIAAAATNYEMLSTLLLNGNPIGGGSGPCLKTLLESENTQLVTLDLEQTDQGLKSLVHIARGLVHNTTLTTLNLGRPLMTNPMDVSYVVEHLSLALKENRTLRFLGLSHFNMADCDLALLLSTLRDSAVTTLSLKGNKLSQASGEPLAQLLAHRPDFLSLDVTANRLRDVGALAIAAVIANHPGLRELQIGFNTIGGVGISALAQSLAANASITTLKLWGNDLTDESVRDLYAIRGRFESMEVTDFSFYVVDGCPMVARE" the listed soluble on expression in E. coli is not soluble

For record "MSLRGIRLQQPAGLASLSSVALPDPGQPAAGQIRVRLHASSLNFHDLGIVSGQMPTADGRIPMSDGAGVVEAVGEAVSDFAVGDHVVSTFFPQWLDGEPLHAGFATTPGDGVDGYARSAVVAAAQAFTHAPRGYSHAEAATLTTAGVTAWRALVVNGRIKAGDTVLVLGTGGVSIFALQFAKAMGAMVIVTSSSDQKLETARTLGADHCINYRQHTEWAAQVLEITNGRGVDHVVEVGGPGTLAQSIKAARVGGHIALIGVLTGAAGPVPTAEMMGRQQRLQGLVVGSRRHQQELVRALDGLPLRPVIDRSFALEDIAEAFALQHAGGHLGKIVLEFEGHHHHHH" the listed soluble on expression in E. coli is soluble

----------
- protocol-description: soluble on expression in E. coli; label from the status in PepcDB or PDB records
quantity-name: soluble on expression in E. coli

MSYPLFDKDEHWHKPEQAFLTDDHRTILRFAVEALMSGKGAVLVTLVEIRGGAARPLGAQMVVREDGRYCGFVSGGCVEAAAAFEALEMMGSGRDREIRYGEGSPWFDIVLPCGGGITLTLHKLRSAQPLLAVLNRLEQRKPVGLRYDPQAQSLVCLPTQTRTGWNLNGFEVGFRPCVRLMIYGRSLEAQATASLAAATGYDSHIFDLFPASASAQIDTDTAVILLCHDLNRELPVLQAAREAKPFYLGALGSYRTHTLRLQKLHELGWSREETTQIRAPVGIFPKARDAHTLALSVLAEVASVRLHQEEDSCLPPSS : not soluble
MSLAFNYDEYLRVDKMPTQWCWGCGDGVVLKCIIRAIEKLGWNMDDVCLVSGIGCSGRMSSYVNCNTVHTTHGRAIAYATGIKLANPSKHVIVVSGDGDTLAIGGNHTIHGCRRNIDLTHIVINNFIYGLTNSQTSPTTPKGFYTVTAQFGNIDPNFDACELTKAAGASFVARGNVIEANKLENLIYKALAHKGYSFVDVFSNCHINLGRKNKMGEAVAMLDWIKNRVVDKAKFESMDFEERKDKFPTGILHEDNSQPEYCHAYEEVRRAAKEKRMVDLGALKEGHHHHHH : not soluble
SMARENGESSSSWKKQAEDIKKIFEFKETLGTGAFSEVVLAEEKATGKLFAVKCIPKKALKGKESSIENEIAVLRKIKHENIVALEDIYESPNHLYLVMQLVSGGELFDRIVEKGFYTEKDASTLIRQVLDAVYYLHRMGIVHRDLKPENLLYYSQDEESKIMISDFGLSKMEGKGDVMSTACGTPGYVAPEVLAQKPYSKAVDCWSIGVIAYILLCGYPPFYDENDSKLFEQILKAEYEFDSPYWDDISDSAKDFIRNLMEKDPNKRYTCEQAARHPWIAGDTALNKNIHESVSAQIRKNFAKSKWRQAFNATAVVRHMRKLHLGSSLDSSNA : soluble
MKHKTKILHLKNGYDLWGASFGDPNSPIKILALHGGPGDDADEFIVWADQLKKFARIDAEVFVYEQLGSFHSESPDFSKKENVDNYLNYNYYINEVEEVRQLFDLDNFYLAGHSWGGILAYEYMLRSEYRQHLKAGIVFSMNDNIDDYVKQINKELLDMFGEQEFKYMKRIETSGDFSQKHYHQNLIELYKEHLNRDPNYNPDDGMKMMAEDVYHHFQGNNEFVVTGEMKNWNVSSRLPEFDIPVLETVGEFDTMSVESAKRSARKLPRGRFALTENGGHSHAQDHPKEFFEHLGSFIKDVKAGNV : not soluble

Turning now to a further sequence:
For record "MSLRVLGIETSCDETGIAIYDDEKGLLANQLYSQVKLHADYGGVVPELASRDHVRKTVPLIQAALKESGLTAKDIDAVAYTAGPGLVGALLVGATVGRSLAFAWDVPAIPVHHMEGHLLAPMLEDNPPEFPFVALLVCGGHTQLISVTGIGQYELLGESIDDAAGEAFDKTAKLLGLDYPGGPLLSKMAAQGTAGRFVFPRPMTDRPGLDFSFSGLKTFAANTIRDNGTDDQTRADIARAFEDAVVDTLMIKCKRALDQTGFKRLVMAGGVSANRTLRAKLAEMMKKRRGEVFYARPEFCTDNGAMIAYAGMVRFKAGATADLGVSVRPRWPLAELPAEGHHHHHH" the listed soluble on expression in E. coli is soluble
